Molecular target: T1, human IL-4 (human, UniProt P05112 25-153, biotinylated in the receptor binding assay and on the Biacore chip)
T1 construct: also called interleukin-4; biotinylated IL-4
T1 sequence (looked up): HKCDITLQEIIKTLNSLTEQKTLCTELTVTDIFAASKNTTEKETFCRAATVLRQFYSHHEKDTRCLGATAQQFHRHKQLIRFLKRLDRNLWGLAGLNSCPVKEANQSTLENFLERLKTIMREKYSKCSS
Assay: DOM9 RBA (IL-4 RBA)
property_name: pIC50
Expect pIC50 as a plain number equal to -log10 of the molar concentration.

Known results for binders:
{"columns": ["binder", "numeric_value"],
 "data": [
  ["DOM9-112-210-ASTKGPS-DOM10-208 (bispecific antibody, in-line fusion, from pDOM5) EVQLLESGGGLVQPGGSLRLSCAASGFTFRNFGMGWVRQAPGKGLEWVSWIISSGTETYYADSVKGRFTISRDNSKNTLYLQMNSLRAEDTAVYYCAKSLGRFDYWGQGTLVTVSSASTKGPSDIQMTQSPSSLSASVGDRVTITCRASSPITDGLAWYQQKPGKAPKLLIDTGSRLQSGVPSRFSGSGSGTDFTLTISSLQPEDFATYYCRQGAMGSYTFGQGTKVEIKR", 8.61],
  ["DOM10-270-TVAAPS-DOM9-155-78 (bispecific antibody, in-line fusion, from pDOM5) DIQMTQSPSSLSASVGDRVTITCRASSVILNELHWYQQKPGKAPKLLISAVSRLQSGVPSRFSGSGSGTDFTLTISSLQPEDFATYYCLQTFWGPYTFGQGTKVEIKRTVAAPSDIQMTQSPSSLSASVGDRVTITCRASRHIGDWLHWYQQKPGKAPKLLIAWASTLDSGVPSRFSGSGSGTDFTLTISSLQPEDFATYYCLQEGWGPPTFGQGTKVEIKR", 8.07],
  ["DOM9-112-210-ASTKGPS-DOM10-215 (bispecific antibody, in-line fusion, from pDOM5) EVQLLESGGGLVQPGGSLRLSCAASGFTFRNFGMGWVRQAPGKGLEWVSWIISSGTETYYADSVKGRFTISRDNSKNTLYLQMNSLRAEDTAVYYCAKSLGRFDYWGQGTLVTVSSASTKGPSDIQMTQSPSSLSASVGDRVTITCRASQNIFADLNWYQQKPGKAPKLLIYMGSRLQSGVPSRFSGSGSGTDFTLTISSLQPEDFATYYCQQDYKFPLTFGQGTKVEIKR", 7.85],
  ["DOM9-112-210-ASTKGPS-DOM10-212 (bispecific antibody, in-line fusion, from pDOM5) EVQLLESGGGLVQPGGSLRLSCAASGFTFRNFGMGWVRQAPGKGLEWVSWIISSGTETYYADSVKGRFTISRDNSKNTLYLQMNSLRAEDTAVYYCAKSLGRFDYWGQGTLVTVSSASTKGPSDIQMTQSPSSLSASVGDRVTITCRASSVILNELHWYQQKPGKAPKLLISAVSRLQSGVPSRFSGSGSGTDFTLTISSLQPEDFATYYCLQTFWGPFTFGQGTKVEIKR", 8.49]
]}

Pending binder:
Query string: Return reported pIC50; argument: DOM9-112-210-ASTKGPS-DOM10-416 (bispecific antibody, in-line fusion, from pDOM5) EVQLLESGGGLVQPGGSLRLSCAASGFTFRNFGMGWVRQAPGKGLEWVSWIISSGTETYYADSVKGRFTISRDNSKNTLYLQMNSLRAEDTAVYYCAKSLGRFDYWGQGTLVTVSSASTKGPSEVQLLESGGGLVQPGGSLRLSCAASGFTFKGSEMDWVRQAPGKGLEWVSTISADGRETYYADSVKGRFTISRDNSKNTLYLQMNSLRAEDTAVYYCAKSYTSFDYWGQGTLVTVSS
Result string: 8.14
